Hi there, I'd appreciate the recorded Population Membrane Permeable-Phenotype (%) for every entry that follows.
system: Fibroblast; test: Multiplex assay against human fibroblast; type: toxicity, cell-based; settings: 12 h, 10 µM, compound concentration 10 uM, replicate 1
Report the value in % with no unit label.

Entry CN(C)C(=O)C(CCN1CCC(O)(c2ccc(Cl)cc2)CC1)(c1ccccc1)c1ccccc1.Cl [LOPERAMIDE HYDROCHLORIDE] — recorded Population Membrane Permeable-Phenotype (%) = 0

In plain terms, CCCS(=O)(=O)Nc1ccc(F)c(C(=O)c2c[nH]c3ncc(Cl)cc23)c1F has a documented Population Membrane Permeable-Phenotype (%) of 3

Sure, the documented Population Membrane Permeable-Phenotype (%) for COc1cc(N2CCN(C)CC2)ccc1Nc1ncc2c(n1)N(C)c1ccccc1C(=O)N2C is 17

Summary for this compound, CCN1CCN(Cc2ccc(Nc3ncc(F)c(-c4cc(F)c5nc(C)n(C(C)C)c5c4)n3)nc2)CC1.CS(=O)(=O)O : Population Membrane Permeable-Phenotype (%) is 52

Please fill in: Population Membrane Permeable-Phenotype (%) reported for CCn1c(=O)c(-c2ccc(-c3cncs3)cc2Cl)cc2cnc(Nc3ccc(N4CCN(C)CC4)cc3)nc21 = 41

Sample COc1cccc2cc(-c3nc([C@H]4CC[C@H](C(=O)O)CC4)n4ncnc(N)c34)[nH]c12 ; Population Membrane Permeable-Phenotype (%) observed: 2

Short answer for C=C1/C(=C\C=C2/CCC[C@]3(C)[C@@H]([C@H](C)/C=C/[C@H](C)C(C)C)CC[C@@H]23)C[C@@H](O)C[C@@H]1O : Population Membrane Permeable-Phenotype (%) was 4

For this compound ( Cn1nc(C(F)(F)F)cc1-c1cnc(N2CCc3cc(S(=O)(=O)Nc4c(F)cc(Cl)cc4F)cc(N4CCCC4=O)c32)nc1 ), measured Population Membrane Permeable-Phenotype (%) is 13

The value of Population Membrane Permeable-Phenotype (%) measured for the compound O=C(Nc1ccc(-c2ccnc(Nc3ccc(N4CCOCC4)cc3)n2)cc1)[C@@H]1CCCN1 turned out to be 28

Measured Population Membrane Permeable-Phenotype (%) of O=C1N/C(=N/c2ccccc2F)S/C1=C\c1ccc(C(=O)O)cc1 : 36

Briefly, Population Membrane Permeable-Phenotype (%) measured for CCc1cccc(CC)c1NC(=O)c1nn(C)c2c1CCc1cnc(Nc3ccc(C(=O)NC4CCN(C)CC4)cc3OC(F)(F)F)nc1-2 : 8

// Population Membrane Permeable-Phenotype (%) lookup, compound = O=C(Nc1ccc(Cl)cc1)Nc1cccc(-c2cccc(N3CCCC3)n2)c1 , result: 40

response.value for CNc1cc(Oc2cc(C(=O)Nc3cc(N4CCN(C)CC4)cc(C(F)(F)F)c3)ccc2C)ncn1 (field: Population Membrane Permeable-Phenotype (%)) = 37

Lab book: Population Membrane Permeable-Phenotype (%) of Cc1cc(C)c(S(=O)(=O)N(Cc2ccc(-c3cccc(S(C)(=O)=O)c3)cc2)Cc2ccc(C(F)(F)F)o2)c(C)c1 noted as 25

Entry O=C1NC(=O)C(c2cnc3ccccn23)=C1c1cn2c3c(cc(F)cc13)CN(C(=O)N1CCCCC1)CC2 ; Population Membrane Permeable-Phenotype (%) = 50

response.value for CCOC(=O)c1c(C)[nH]c2ccc3c(c12)CN1CCc2cc(OC)ccc2C1O3 (stereo unspecified) (field: Population Membrane Permeable-Phenotype (%)) = 12
